Test system: SR leukemia
Test: NCI tumour cell line growth inhibition, 48 h
quantity.measured: TGI

Look at this compound and give its reported TGI. COc1cc2cc(Oc3ccc(NC(=O)c4cccc5c4OCCO5)cc3)c(C)nc2cc1OC
> 100 µM

Then NS(=O)(=O)c1cc(S(N)(=O)=O)c(NC(=O)N(c2ccccc2)c2ccccc2)c(Cl)c1Cl ?
43.1 µM

Request: CCOCNc1ccc(N2C(=O)/C(=C/c3ccc(N(CC)CC)cc3)N=C2c2ccccc2)cc1
> 100 µM

How about this compound: CC1(C)CCC2(C(=O)OC3OC(CO)C(O)C(O)C3O)CCC3(CO)C(=CCC4C5(C)CC(O)C(O)C(C)(C(=O)OC6OC(CO)C(O)C(O)C6O)C5CCC43C)C2C1 (stereo not given)
> 100 µM

Note, next up: CC(C)(C)OC(=O)N1CCc2c(n(C/C=C/c3ccccc3)[nH]c2=O)C1
> 100 µM

Next: Cn1cnc([N+](=O)[O-])c1Sc1nc(N)nc2nc[nH]c12
> 100 µM

Same thing, different compound: COc1ccc(C2NCCc3c2[nH]c2ccccc32)cc1 (stereo not given)
91.5 µM

Then what about the compound O=C1CSC2(CC(/C=C/c3ccccc3Br)=NN2c2cccc(S(=O)(=O)O)c2)N1c1nc2ccccc2s1 (stereo not given) ?
> 100 µM

How about this compound: O=C1C=C(N2CCN(c3ccccn3)CC2)C(=O)c2c(O)ccc(O)c21
> 50.7 µM

Moving on to the next compound: CC(C)CCCC(C)[C@H]1CC[C@H]2N=C(Nc3ccccc3)CCC[C@]12C (stereo not given in full)
4.33 µM

Proceed to O=C(Nc1ccc(Cl)cc1)Nc1ccccc1CNc1nc(Nc2ccc(OCCN3CCCC3)cc2)ncc1Cl
50 µM

Quick one: COC(=O)/C=C/c1ccc2c(c1)CC1(Cc3ccccc3C1)C2
58.1 µM

Subsequent entry: Cc1ccc(/C=C2\CN(C)CC3C2=NC(=S)NC3c2ccc(C)cc2)cc1 (stereo not given)
> 100 µM

// repeat for C=CC1=CC(C)C[C@]1(O)C(=O)OC (stereo not given in full) and report
> 100 µM

Now the compound CC[C@H](C)[C@H](NC(=O)[C@H]1CCCCN1C)C(=O)N(C)[C@H](C[C@@H](OC(C)=O)c1nc(C(=O)N[C@@H](Cc2ccccc2)C[C@H](C)C(=O)OC)cs1)C(C)C
9.59 µM

What about this compound? Cn1c(=O)sc2cc(C(=S)N3CCOCC3)ccc21
> 100 µM

Follow-up entry: NC(=O)c1cc(I)ccc1NC(=O)COc1ccccc1
> 74.1 µM

Cool, now C/C(=C\Cc1cc(O)ccc1O)CCc1c(C)cc(O)c(C=O)c1C
> 100 µM

Again, but for COC(=O)n1c(C[P+](c2ccccc2)(c2ccccc2)c2ccccc2)cc2ccccc21
25 µM

And O=C(O)[C@@H]1CCCC[C@@H]1C(=O)N(C1CCCCC1)C1CCCCC1 ?
> 100 µM
